Target: Human recombinant PDE3A (hPDE3A) (Homo sapiens, UniProt Q14432)
Construct: purchased Scottish Biomedical; host or cells: Sf9 insect cells
Sequence (Q14432 whole entry): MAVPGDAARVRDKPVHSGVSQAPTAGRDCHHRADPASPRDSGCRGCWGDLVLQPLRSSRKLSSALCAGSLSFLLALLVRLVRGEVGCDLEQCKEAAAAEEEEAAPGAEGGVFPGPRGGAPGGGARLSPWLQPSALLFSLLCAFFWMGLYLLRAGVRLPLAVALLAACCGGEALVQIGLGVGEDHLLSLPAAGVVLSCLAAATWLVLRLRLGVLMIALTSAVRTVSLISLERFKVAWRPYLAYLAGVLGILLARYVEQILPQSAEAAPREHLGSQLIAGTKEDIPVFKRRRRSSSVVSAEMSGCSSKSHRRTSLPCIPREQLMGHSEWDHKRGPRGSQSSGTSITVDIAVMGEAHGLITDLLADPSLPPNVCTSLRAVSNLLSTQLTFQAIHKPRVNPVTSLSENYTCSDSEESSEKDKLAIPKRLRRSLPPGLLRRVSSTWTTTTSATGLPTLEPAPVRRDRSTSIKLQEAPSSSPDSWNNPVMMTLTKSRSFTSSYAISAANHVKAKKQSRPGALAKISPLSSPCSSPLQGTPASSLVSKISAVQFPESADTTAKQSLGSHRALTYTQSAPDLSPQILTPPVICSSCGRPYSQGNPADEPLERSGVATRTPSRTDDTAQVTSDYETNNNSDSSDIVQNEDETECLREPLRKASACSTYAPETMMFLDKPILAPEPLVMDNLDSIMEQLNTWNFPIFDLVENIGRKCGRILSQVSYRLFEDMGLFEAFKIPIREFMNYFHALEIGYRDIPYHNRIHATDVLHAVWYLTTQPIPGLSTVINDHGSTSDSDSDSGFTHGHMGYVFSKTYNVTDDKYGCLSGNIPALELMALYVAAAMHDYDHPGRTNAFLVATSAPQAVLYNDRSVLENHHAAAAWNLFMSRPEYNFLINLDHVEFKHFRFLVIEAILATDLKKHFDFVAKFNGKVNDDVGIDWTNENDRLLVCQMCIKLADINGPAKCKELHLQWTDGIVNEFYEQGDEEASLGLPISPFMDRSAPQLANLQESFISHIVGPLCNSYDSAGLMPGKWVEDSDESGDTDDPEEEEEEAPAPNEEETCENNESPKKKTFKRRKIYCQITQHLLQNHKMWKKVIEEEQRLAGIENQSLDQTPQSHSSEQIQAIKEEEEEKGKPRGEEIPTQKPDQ
Experiment: In vitro assay PDE3A (SPA, 3H-cAMP hydrolysis);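 further: the method names PDE3A and the table heading PDE3B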
Type: biochemical
Details: hPDE3B pIC50; read-out: pIC50 (converted)
Please use True for IC50 under 3 µM and False for everything else, ties included.

{"COMPOUND": "Cc1cnc(Cl)cc1C(=O)N1CC[C@@H](C)[C@H](c2cc(C(F)F)nc3ncnn23)C1", "CLASS LABEL": "False"}
{"COMPOUND": "Cc1cc([C@@H]2CN(C(=O)c3cc(Cl)ncc3C)CC[C@H]2C)n2ncnc2n1", "CLASS LABEL": "False"}
{"COMPOUND": "O=C(c1cc(OC(F)F)cc(C2CC2)c1)N1[C@H]2CC[C@H](c3cc(C(F)F)nc4ncnn34)[C@@H]1CC2", "CLASS LABEL": "True"}
{"COMPOUND": "C[C@@H]1CCN(C(=O)c2c(Cl)cncc2Cl)C[C@H]1c1cc(C(F)F)nc2ncnn12", "CLASS LABEL": "False"}
{"COMPOUND": "CCCC[C@@H]1CCN(C(=O)c2cc(C)nc(C)c2)C[C@H]1c1cc(C(F)F)nc2ncnn12 (single isomer, unassigned) [Compound 45]", "CLASS LABEL": "False"}
{"COMPOUND": "Cc1cc([C@H]2CN(C(=O)c3ccc4nccn4c3)CC[C@@H]2C)n2ncnc2n1", "CLASS LABEL": "False"}
{"COMPOUND": "O=C(c1ccc(F)c(Cl)c1)N1[C@H]2CC[C@H](c3cc(C(F)F)nc4ncnn34)[C@@H]1CC2", "CLASS LABEL": "False"}
{"COMPOUND": "Cc1nc(C2CC2)cc(C(=O)N2CC[C@@H](C)[C@H](c3cc(C(F)F)nc4ncnn34)C2)c1F", "CLASS LABEL": "True"}
{"COMPOUND": "Cc1cc([C@H]2CN(C(=O)c3cc(C)c(F)c(C)c3)CC[C@@H]2C)n2ncnc2n1", "CLASS LABEL": "False"}
{"COMPOUND": "C[C@@H]1CCN(C(=O)c2cnc3ccccc3c2O)C[C@H]1c1cc(C(F)F)nc2ncnn12", "CLASS LABEL": "True"}
{"COMPOUND": "Cc1cc(C(=O)N2[C@H]3CC[C@H](c4cc(C(F)F)nc5ncnn45)[C@@H]2CC3)cc(OC(F)F)n1", "CLASS LABEL": "False"}
{"COMPOUND": "Cc1cc(C(=O)N2CCC[C@](C)(c3cc(C(F)F)nc4ncnn34)C2)cc(C)n1 (single isomer, unassigned)", "CLASS LABEL": "False"}
{"COMPOUND": "O=C(c1ccc(F)c(C(F)(F)F)c1)N1[C@H]2CC[C@H](c3cc(C(F)F)nc4ncnn34)[C@@H]1CC2", "CLASS LABEL": "False"}
{"COMPOUND": "Cc1cc([C@H]2CN(C(=O)c3ccc4ncsc4c3)CC[C@@H]2C)n2ncnc2n1", "CLASS LABEL": "False"}
{"COMPOUND": "O=C(c1ccc2occc2c1)N1CCC[C@](F)(c2cc(C(F)F)nc3ncnn23)C1 (single isomer, unassigned)", "CLASS LABEL": "False"}
